// values below are IC50; system is UniProtKB Q9HC97
Sequence (Q9HC97 whole entry): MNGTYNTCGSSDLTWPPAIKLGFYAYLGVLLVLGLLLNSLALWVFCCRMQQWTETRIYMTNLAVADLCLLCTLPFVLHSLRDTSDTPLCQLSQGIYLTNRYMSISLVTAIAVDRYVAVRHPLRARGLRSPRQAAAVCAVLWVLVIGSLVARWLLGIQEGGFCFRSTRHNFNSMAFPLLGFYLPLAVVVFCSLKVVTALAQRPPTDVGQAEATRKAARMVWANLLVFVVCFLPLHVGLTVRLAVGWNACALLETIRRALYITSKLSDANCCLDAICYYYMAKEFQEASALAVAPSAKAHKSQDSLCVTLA
Record the value in µM, omitting the unit from your answer.

CCCn1c(SCC(=O)Nc2nc3c(s2)CCCC3)nc2c1c(=O)n(C)c(=O)n2C    17.8

Shifting focus to the compound that follows.
Query block: Short answer please: IC50, UniProtKB Q9HC97, entry `CCCCn1c(CN2CCN(c3cccc(Cl)c3)CC2)nc2c1c(=O)n(C)c(=O)n2C`
Result block: 3.51
